- Test system: T1, human NK1 receptor (human, UniProt P25103)
- T1 chain: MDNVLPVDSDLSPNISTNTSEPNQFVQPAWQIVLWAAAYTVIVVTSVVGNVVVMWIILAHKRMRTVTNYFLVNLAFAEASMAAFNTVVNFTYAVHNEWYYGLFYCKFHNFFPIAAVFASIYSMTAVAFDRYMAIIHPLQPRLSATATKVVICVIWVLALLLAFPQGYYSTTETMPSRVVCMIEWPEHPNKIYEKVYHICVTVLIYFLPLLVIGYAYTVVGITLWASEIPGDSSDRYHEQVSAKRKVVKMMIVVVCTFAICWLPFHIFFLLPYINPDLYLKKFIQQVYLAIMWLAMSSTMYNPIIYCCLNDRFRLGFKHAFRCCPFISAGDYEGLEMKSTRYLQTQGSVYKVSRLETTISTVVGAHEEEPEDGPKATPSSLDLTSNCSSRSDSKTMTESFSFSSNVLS
- Protocol notes: competition
Non-standard residues stand in square brackets, D forms with d. No end group written: not given here. *: point of attachment. NMePhe(4-F) = CN[C@@H](Cc1ccc(F)cc1)C(=O)O; Phe(4-F) = N[C@@H](Cc1ccc(F)cc1)C(=O)O; NMeF = CN[C@@H](Cc1ccccc1)C(=O)O; NHBn = c1ccc(CN*)cc1
# strict inequality: Ki < 1 nM yields rule met, everything else yields rule not met

Y[dA]GFNPLW (not fully specified (C-terminus)) [AKG104]    rule not met
Y[dA]GF[dQ]PLW (not fully specified (C-terminus)) [AKG103]    rule not met
Y[dA]GF[dN]PLW-NHBn [AKG102]    rule not met
Y[dA]G[NMePhe(4-F)]QPLW-NHBn [AKG143]    rule not met
Y[dA]GFQPLW (not fully specified (C-terminus)) [AKG105]    rule met
Y[dA]G[Phe(4-F)]QPLW-NHBn [AKG142]    rule not met

Now consider the entry below.
Here's an entry: Y[dA]G[NMeF]QPLW (not fully specified (C-terminus)) [AKG129] . Is its Ki below 1 nM?
rule met
